The measured values listed here are drawn from PubChem BioAssay (NCI).

- Tested on: SN12C renal
- assay.name: NCI tumour cell line growth inhibition, 48 h
I'd be grateful if you could share measured TGI for these entries.

Requested read-out: TGI. Entry: `N#Cc1cc(C#N)c(Cl)nc1N`
> 10 µM

Consider the compound shown here: CCC1(C)NN=c2s/c(=C/c3ccc(OC)cc3)c(=O)n2N1 (stereo not drawn) What is its recorded TGI?
> 100 µM

Using the record for `CC(C)(C)OC(=O)NCCNC1=CC(=O)c2nc3ccccc3c3ccnc1c23` , report its TGI.
55.6 µM

For the compound shown here, `O=C(O)CSCc1cccc2ccccc12` , give the reported TGI.
> 100 µM

Form field: reported TGI of `O=C1N[C@H]2c3c(Cl)sc(Cl)c3/C(=N/O)[C@H]2O1`
> 100 µM

Value lookup for TGI; key = CC12CC3C(CC1SCC(=O)O2)C3(C)C (stereo not drawn)
> 100 µM

Reported TGI for `N=C(c1ccccc1)N(c1ccccc1)c1ccccc1` : what is it?
> 100 µM

Give its TGI value. Item: `Cc1cccc(C(=O)c2cccc3ccccc23)c1C(=O)O`
> 100 µM
